Hey, just so you know, these numbers are from patent US20260242735A1.

# TESTED TARGET: human CD33 N230A (human, UniProt P20138 18-364)
# Sequence (P20138 18-364 N230A limits assumed): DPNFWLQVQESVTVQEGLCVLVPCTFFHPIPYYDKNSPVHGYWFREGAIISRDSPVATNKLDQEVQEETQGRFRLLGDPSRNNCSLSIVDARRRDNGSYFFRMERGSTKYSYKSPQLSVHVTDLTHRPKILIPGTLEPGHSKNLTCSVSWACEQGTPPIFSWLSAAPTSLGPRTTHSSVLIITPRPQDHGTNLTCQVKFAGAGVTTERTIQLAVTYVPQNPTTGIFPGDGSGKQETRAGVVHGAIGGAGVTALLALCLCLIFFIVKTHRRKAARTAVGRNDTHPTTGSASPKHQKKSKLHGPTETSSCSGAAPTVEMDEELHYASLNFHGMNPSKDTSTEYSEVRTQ
# ASSAY PROCEDURE: alanine scan, flow cytometry, HEK293-T;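 note: antibody binding to each alanine-substituted CD33 mutant expressed transiently in HEK293-T, read as fluorescence minus background, mean of duplicates, relative to wild-type CD33 set as 100%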
Could you please report measured Mean % WT Binding for the items listed next?
Please don't drop the unit; write it after the number.

BINDER	Mean % WT Binding
Refmab #1 (antibody, V domains shown, In the alanine scan antibodies were used as IgG or Fab; also called hP67.6) VH: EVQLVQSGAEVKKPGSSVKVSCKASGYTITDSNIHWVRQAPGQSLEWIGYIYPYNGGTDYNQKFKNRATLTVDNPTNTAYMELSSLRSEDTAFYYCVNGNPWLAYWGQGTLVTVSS VL: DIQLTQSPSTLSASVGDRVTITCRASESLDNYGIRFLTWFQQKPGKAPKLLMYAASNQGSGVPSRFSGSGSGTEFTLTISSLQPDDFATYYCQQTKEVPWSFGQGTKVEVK	83.6%
Refmab #4 (antibody, V domains shown, In the alanine scan antibodies were used as IgG or Fab) VH: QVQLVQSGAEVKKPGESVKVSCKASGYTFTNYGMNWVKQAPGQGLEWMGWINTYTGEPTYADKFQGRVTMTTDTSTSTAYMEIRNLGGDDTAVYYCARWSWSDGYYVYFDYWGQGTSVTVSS VL: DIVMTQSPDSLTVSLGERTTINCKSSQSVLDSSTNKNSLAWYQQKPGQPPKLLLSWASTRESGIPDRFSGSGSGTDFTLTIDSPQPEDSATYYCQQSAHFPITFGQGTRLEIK	63.5%
Refmab #2 (antibody, V domains shown, In the alanine scan antibodies were used as IgG or Fab) VH: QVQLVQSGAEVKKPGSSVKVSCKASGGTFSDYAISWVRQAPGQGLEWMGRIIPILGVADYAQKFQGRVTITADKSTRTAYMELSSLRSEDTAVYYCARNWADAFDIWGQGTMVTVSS VL: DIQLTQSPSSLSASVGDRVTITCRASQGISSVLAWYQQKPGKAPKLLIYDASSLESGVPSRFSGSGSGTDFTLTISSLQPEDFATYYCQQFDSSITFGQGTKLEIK	96.4%

Sample Refmab #3 (antibody, V domains shown, In the alanine scan antibodies were used as IgG or Fab) VH: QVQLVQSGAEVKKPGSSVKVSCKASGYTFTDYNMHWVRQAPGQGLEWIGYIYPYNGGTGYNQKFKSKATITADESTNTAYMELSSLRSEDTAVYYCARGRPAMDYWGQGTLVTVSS VL: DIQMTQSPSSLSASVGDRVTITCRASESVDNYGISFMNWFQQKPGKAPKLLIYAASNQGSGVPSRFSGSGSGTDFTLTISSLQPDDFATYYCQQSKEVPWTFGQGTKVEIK ; Mean % WT Binding observed: 109%
